target: JAK2 (JH1domain-catalytic, Y1007F,Y1008F) kinase (Homo sapiens, UniProt O60674, Y1007F/Y1008F); construct: JAK2 (JH1domain-catalytic, Y1007F,Y1008F) kinase was expressed as N-terminal fusion; test: JAK2 JH1 Domain Binding Assay; conditions: qPCR readout
Sequence (O60674 849-1124 Y1007F/Y1008F limits assumed): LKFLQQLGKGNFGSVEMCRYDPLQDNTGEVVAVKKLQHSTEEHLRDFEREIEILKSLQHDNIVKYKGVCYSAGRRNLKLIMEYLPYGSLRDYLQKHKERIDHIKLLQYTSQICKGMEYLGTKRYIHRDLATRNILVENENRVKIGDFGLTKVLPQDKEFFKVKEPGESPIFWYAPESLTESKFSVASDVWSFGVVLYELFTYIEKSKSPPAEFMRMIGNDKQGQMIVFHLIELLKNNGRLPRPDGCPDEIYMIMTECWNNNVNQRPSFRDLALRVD
pKd: −log10 of the molar value.
ENDPOINT_NAME: pKd

For each entry beneath this line, provide reported pKd.
1. Cn1c(Nc2cc(C(C)(C)C)n([C@@H]3COC[C@H]3O)n2)nc2ncc(Oc3cnc4cnc(C5CC5)n4c3)c(C(F)F)c21 (single isomer, unassigned)
2. COCCOc1cn2ncc(Oc3cnc4nc(Nc5cc(C(F)(F)F)cn(C)c5=O)n(C)c4c3C#N)c2cn1
3. COC1CN(Cc2cc(Nc3nc4ncc(Oc5cnn6ccncc56)c(Cl)c4n3C)cc(C(F)(F)F)c2)C1
4. Cn1c(Nc2cc(C(C)(C)C#N)n([C@@H]3CCOC3)n2)nc2ncc(Oc3cnc4ccnn4c3)c(Cl)c21
5. CN1CCC[C@H]1c1cc(Nc2nc3ncc(Oc4cnn5ccncc45)c(Cl)c3n2C)cc(C(F)(F)F)c1 (single isomer, unassigned)

Key:
1. 6.00 to 7.30
2. > 8.00
3. > 8.00
4. 7.30 to 8.00
5. > 8.00
